- System: Candida albicans IFO. 1385
- assayDetails: In vitro antifungal activity, microbroth dilution MIC
- Format: cell-based
- conditionNotes: RPMI-1640, 35° C., 4 to 48 hours, no growth observed
- Text: […]
Consider the following compounds and their measured Minimal inhibitory concentration(MIC), C. albicans IFO. 1385 readings.
Answer format: numeric, µg/mL implied, no suffix.

FC(=Cc1ccc(Cl)cc1)OCC1COC(Cn2cncn2)(c2ccc(Cl)cc2Cl)O1 (mixture of isomers) | 6.25
FC(Oc1ccc(OCC2COC(Cn3ccnc3)(c3ccc(F)cc3F)O2)cc1)=C(c1cccc(C(F)(F)F)c1)C(F)(F)F (mixture of isomers) | 3.13
FC(Oc1ccc(OCC2COC(Cn3ccnc3)(c3ccc(Cl)cc3Cl)O2)cc1)=C(c1cccc(Cl)c1)C(F)(F)F (mixture of isomers) | 3.13
COc1ccc(C(=C(F)N2CCN(c3ccc(OCC4COC(Cn5ccnc5)(c5ccc(Cl)cc5Cl)O4)cc3)CC2)C(F)(F)F)cc1 (mixture of isomers) | 1.56
CCOc1ccc(C(=C(F)OCC2COC(Cn3cncn3)(c3ccc(Cl)cc3Cl)O2)C(F)(F)F)cc1 (mixture of isomers) | 25.0

Minimal inhibitory concentration(MIC), C. albicans IFO. 1385 measured on FC(Oc1ccc(OCC2COC(Cn3cncn3)(c3ccc(Cl)cc3Cl)O2)cc1)=C(c1ccc(F)cc1)C(F)(F)F (mixture of isomers) = 1.56

Minimal inhibitory concentration(MIC), C. albicans IFO. 1385 measured on FC(=C(c1ccc(Cl)cc1)C(F)(F)F)N1CCN(c2ccc(OCC3COC(Cn4ccnc4)(c4ccc(F)cc4F)O3)cc2)CC1 (mixture of isomers) = 0.39

----------
- Tested on: Candida albicans IFO. 1385
- assayDetails: In vitro antifungal activity, microbroth dilution MIC
- Assay type: cell-based
- conditionNotes: C. albicans IFO. 1385, RPMI-1640, 35° C., 4 to 48 hours
measuredProperty: Minimal inhibitory concentration (MIC) (µg/mL)
Answer format: numeric, µg/mL implied, no suffix.

Known Minimal inhibitory concentration (MIC) results, listed for orientation:
CC(C)Oc1cccc(C=C(F)OCC2COC(Cn3ccnc3)(c3ccc(Cl)cc3Cl)O2)c1 (stereo not shown) [Ex. 11] | 1.56
FC(OCC1COC(Cn2ccnc2)(c2ccc(Cl)cc2Cl)O1)=C(c1ccc(C(F)(F)F)cc1)C(F)(F)F (stereo not shown) [Ex. 25] | 1.56
CCc1ccc(C=C(F)OCC2COC(Cn3ccnc3)(c3ccc(F)cc3F)O2)cc1 (mixture of isomers) [Ex. 39] | 0.39
Cc1cc(C)c(C=C(F)OCC2COC(Cn3ccnc3)(c3ccc(Cl)cc3Cl)O2)cc1C (stereo not shown) [Ex. 7] | 1.56
FC(=Cc1ccc(Cl)cc1)OCC1COC(Cn2ccnc2)(c2ccc(F)cc2F)O1 (mixture of isomers) [Ex. 47] | 0.20

Minimal inhibitory concentration (MIC) measured on FC(=Cc1ccccc1)OCC1COC(Cn2ccnc2)(c2ccc(F)cc2F)O1 (mixture of isomers) [Ex. 36] = 0.78

Minimal inhibitory concentration (MIC) measured on Cc1cc(C=C(F)OCC2COC(Cn3ccnc3)(c3ccc(F)cc3F)O2)ccc1Cl (mixture of isomers) [Ex. 50] = 0.39

Minimal inhibitory concentration (MIC) measured on CCc1ccc(C(=C(F)OCC2COC(Cn3ccnc3)(c3ccc(F)cc3F)O2)C(F)(F)F)cc1 (mixture of isomers) [Ex. 55] = 0.78

Minimal inhibitory concentration (MIC) measured on FC(OCC1COC(Cn2ccnc2)(c2ccc(F)cc2F)O1)=C(c1ccc(F)cc1)C(F)(F)F (mixture of isomers) [Ex. 66] = 0.39

Minimal inhibitory concentration (MIC) measured on Cc1cccc(C=C(F)OCC2COC(Cn3ccnc3)(c3ccc(F)cc3F)O2)c1 (mixture of isomers) [Ex. 37] = 3.13

Minimal inhibitory concentration (MIC) measured on FC(OCC1COC(Cn2ccnc2)(c2ccc(F)cc2F)O1)=C(c1cccs1)C(F)(F)F (mixture of isomers) [Ex. 68] = 0.78

Minimal inhibitory concentration (MIC) measured on FC(OCC1COC(Cn2ccnc2)(c2ccc(F)cc2F)O1)=C(c1ccc2c(c1)OCO2)C(F)(F)F (mixture of isomers) [Ex. 62] = 0.78

Minimal inhibitory concentration (MIC) measured on CCOc1ccc(C=C(F)OCC2COC(Cn3ccnc3)(c3ccc(Cl)cc3Cl)O2)cc1 (stereo not shown) [Ex. 10] = 1.56
